- System: Ba/F3 cells expressing human c-KIT exon 11 deletion + V654A
- ASSAY_DETAILS: Ba/F3 cell proliferation assay (CellTiter-Glo), c-KIT exon 11 deletion + V654A
- Type: cell-based, murine
- CONDITION_NOTES: BaF3; Exon 11 + V654A; n ≥ 3; 72 h incubation; read-out: Average IC50 for c-KIT-expressing Ba/F3 cellular proliferation, Eson 11 + V654A
PROPERTY_NAME: pIC50
In simple prose, pIC50 is minus the logarithm base ten of a concentration in moles per litre.

-- ask Would you kindly share the measured pIC50 for CNC(=O)c1cc(Oc2ccc(NC(=O)Nc3ccc(Cl)c(C(F)(F)F)c3)c(F)c2)ccn1 ?
-- reply 7.42

Value source: patent US20180311220A1
